system: human bronchial epithelial cells; experiment: Clonogenic cell survival assay, bronchial epithelial cells with PDGF-AB (Example 4); format: cell-based; conditions: 10.00 uM; 10 ng/ml PDGF-AB; 14 days
Rule: Clonogenic Survival Assay (percent) of 30% or more gives Condition met; anything lower gives Condition not met.

### Prompt Would you say C#CCCCCC(=O)NCc1ccc(O)c(OC)c1 [Compound 9] shows Clonogenic Survival Assay (percent) at minimum 30%?
### Response Condition met

### Prompt Please indicate if the recorded Clonogenic Survival Assay (percent) for Cc1[nH]c(/C=C2\C(=O)Nc3ccc(Br)cc32)c(C)c1CCC(=O)O [SU9518, reference compound] meets or exceeds 30%.
### Response Condition not met

### Prompt hey, is Clonogenic Survival Assay (percent) for this one >= 30%? COc1cc(CNC(=O)CCCCC#Cc2ccccc2)ccc1O [Compound 2]
### Response Condition met

### Prompt Quick check: does COc1cc(CNC(=O)CCCCC#Cc2ccc([N+](=O)[O-])cc2)ccc1O [Compound 10] have Clonogenic Survival Assay (percent) greater than or equal to 30%?
### Response Condition met

### Prompt Given COc1cc(CNC(=O)CCCCC#Cc2cccc3ccccc23)ccc1O [Compound 12] , state whether its Clonogenic Survival Assay (percent) is at least 30%.
### Response Condition met

### Prompt Entry COc1cc(CNC(=O)CCCC/C=C/C(C)C)ccc1O [Compound 1, capsaicin] : is its Clonogenic Survival Assay (percent) no less than 30%?
### Response Condition met

### Prompt Reported Clonogenic Survival Assay (percent) at or above 30%? COc1ccc(C#CCCCCC(=O)NCc2ccc(O)c(OC)c2)cc1 [Compound 11]
### Response Condition not met

### Prompt Does Clonogenic Survival Assay (percent) meet or surpass 30% for COc1cc(CNC(=O)CCCCCCc2ccccc2)ccc1O [Compound 8] ?
### Response Condition met

Reference source: patent US20240277637A1
